assay info: Cytotoxicity against PHA-stimulated human PBMC assessed as reduction in cell viability at 50 uM by WST-1 cell proliferation assay
Assay type: cell-based
quantity kind: inhibition at 50 µM (%)
Numbers only, in %.

Ask: # query: inhibition at 50 µM of entry COC[C@@H]1[C@@H](c2ccc(OC)c(OC)c2)[C@H]2c3c(c4ccccc4n(C)c3=O)OC(C)(C)[C@@H]12
Result: 30

----------
Assign Intrinsic activity to each entry below.
assay system: Toll-like receptor 4 (Homo sapiens)
Sequence (O00206 whole entry): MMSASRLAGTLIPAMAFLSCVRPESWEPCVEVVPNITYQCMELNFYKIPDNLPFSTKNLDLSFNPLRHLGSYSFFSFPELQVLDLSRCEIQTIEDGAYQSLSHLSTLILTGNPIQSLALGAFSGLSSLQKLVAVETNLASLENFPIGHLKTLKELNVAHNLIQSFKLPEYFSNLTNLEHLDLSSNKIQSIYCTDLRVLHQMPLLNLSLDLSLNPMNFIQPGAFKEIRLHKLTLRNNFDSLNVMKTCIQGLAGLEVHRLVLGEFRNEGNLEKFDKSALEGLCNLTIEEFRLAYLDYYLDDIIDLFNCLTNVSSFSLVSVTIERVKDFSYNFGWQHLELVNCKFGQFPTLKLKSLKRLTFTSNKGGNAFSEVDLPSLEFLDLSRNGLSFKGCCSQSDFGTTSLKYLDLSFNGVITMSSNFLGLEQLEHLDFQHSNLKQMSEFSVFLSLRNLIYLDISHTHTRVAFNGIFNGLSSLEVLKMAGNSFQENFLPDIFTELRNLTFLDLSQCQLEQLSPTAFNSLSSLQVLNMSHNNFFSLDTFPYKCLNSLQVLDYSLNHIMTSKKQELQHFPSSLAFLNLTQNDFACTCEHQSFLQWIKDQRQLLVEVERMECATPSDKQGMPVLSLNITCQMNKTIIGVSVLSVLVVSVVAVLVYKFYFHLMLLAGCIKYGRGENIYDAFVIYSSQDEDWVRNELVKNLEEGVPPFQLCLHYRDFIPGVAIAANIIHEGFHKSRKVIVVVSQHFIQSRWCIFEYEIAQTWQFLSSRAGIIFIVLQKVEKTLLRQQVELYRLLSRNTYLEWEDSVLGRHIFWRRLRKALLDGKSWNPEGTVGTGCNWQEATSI
assay info: Intrinsic activity at human recombinant TLR4 expressed in HEK293 cells by SEAP reporter assay relative to LPS
Format: cell-based
Give bare numbers.

CC[C@@H]1[C@@H](c2ccc(OC)c(OC)c2)[C@H]2c3c(c4cc(C)ccc4n(C)c3=O)OC(C)(C)[C@@H]12 = 0.29
COc1ccc([C@H]2[C@H]3c4c(c5ccccc5[nH]c4=O)OC(C)(C)[C@H]3[C@@H]2C2CCCC2)cc1OC = 0.9
COc1ccc([C@H]2[C@H]3c4c(c5ccccc5[nH]c4=O)OC(C)(C)[C@H]3[C@@H]2C(C)C)cc1CCl = 0.2
COc1ccc([C@H]2[C@H]3c4c(c5ccccc5n(C)c4=O)OC(C)(C)[C@H]3[C@@H]2C(C)C)cc1OC(C)=O = 0.31
COc1ccc([C@@H]2[C@@H](C)[C@H]3[C@@H]2c2c(c4ccccc4[nH]c2=O)OC3(C)C)cc1OC = 0.69
CC[C@@H]1[C@@H](c2ccc(OC)c(F)c2)[C@H]2c3c(c4ccccc4n(C)c3=O)OC(C)(C)[C@@H]12 = 0.36
COc1cc([C@H]2[C@H]3c4c(c5cc(C)ccc5n(C)c4=O)OC(C)(C)[C@H]3[C@@H]2C(C)C)cc(OC)c1OC = 0.41
COc1cc(OC)cc([C@@H]2[C@@H](C)[C@H]3[C@@H]2c2c(c4ccccc4[nH]c2=O)OC3(C)C)c1 = 0.46

Your task in this section: give Intrinsic activity for each listed record.
1. CCC[C@]1(c2ccc(OC)c(OC)c2)O[C@H]2c3c(c4ccccc4[nH]c3=O)OC(C)(C)[C@H]2O1
2. COc1ccc([C@@H]2[C@@H](C(=O)C3CC3)[C@H]3[C@@H]2c2c(c4ccccc4[nH]c2=O)OC3(C)C)cc1OC
3. COc1ccc([C@@H]2[C@@H](C)[C@H]3[C@@H]2c2c(c4ccccc4[nH]c2=O)OC3(C)C)cc1Br
4. COc1ccc([C@@H]2[C@@H](C)[C@H]3[C@@H]2c2c(c4ccccc4[nH]c2=O)OC3(C)C)c(Cl)c1OC
5. COc1cc([C@H]2[C@H]3c4c(c5ccccc5[nH]c4=O)OC(C)(C)[C@H]3[C@@H]2C(C)C)cc(OC)c1OC
6. COc1cc([C@H]2[C@H]3c4c(c5ccccc5[nH]c4=O)OC(C)(C)[C@H]3[C@@H]2C2CCCC2)cc(OC)c1OC

Result:
1: 0.2; 2: 0.62; 3: 0.28; 4: 0.44; 5: 1.18; 6: 0.63

Ask: # query: Intrinsic activity of entry CC[C@@H]1[C@@H](c2cc(OC)c(OC)c(OC)c2)[C@H]2c3c(c4cc(C)ccc4n(C)c3=O)OC(C)(C)[C@@H]12
Result: 0.3

Taken from ChEMBL document CHEMBL3259572.
